This collection of values is drawn from patent US20130058934A1.

# tgt: cynomolgus LRP6 (cynomolgus)
# assay-explanation: FACS on HEK293T/17 cells transiently transfected with cynomolgus LRP6
What EC50 was measured for each of the following?
One number for each entry, in nM.

Worked examples follow.
[[record]]
binder = "MOR06475 Fab (Fab, V domains shown) VH: QVQLKESGPALVKPTQTLTLTCTFSGFSLSNRGGGVGWIRQPPGKALEWLAWIDWDDDKSYSTSLKTRLTISKDTSKNQVVLTMTNMDPVDTATYYCARMHLPLVFDSWGQGTLVTVSS VL: DIVLTQSPATLSLSPGERATLSCRASQFIGSRYLAWYQQKPGQAPRLLIYGASNRATGVPARFSGSGSGTDFTLTISSLEPEDFATYYCQQYYDYPQTFGQGTKVEIK"
obs_value = 0.22

[[record]]
binder = "MOR08168 Fab (Fab, V domains shown) VH: QVQLVESGGGLVQPGGSLRLSCAASGFTFSDYVINWVRQAPGKGLEWVSGISWSGVNTHYADSVKGRFTISRDNSKNTLYLQMNSLRAEDTAVYYCARLGATANNIRYKFMDVWGQGTLVTVSS VL: DIELTQPPSVSVAPGQTARISCSGDSLRNKVYWYQQKPGQAPVLVIYKNNRPSGIPERFSGSNSGNTATLTISGTQAEDEADYYCQSYDGQKSLVFGGGTKLTVL"
obs_value = 0.88

[[record]]
binder = "MOR06706 Fab (Fab, V domains shown) VH: QVQLVESGGGLVQPGGSLRLSCAASGFTFSDYAIHWVRQAPGKGLEWVSGISYSGSSTHYADSVKGRFTISRDNSKNTLYLQMNSLRAEDTAVYYCARGSHGNIMAKRYFDFWGQGTLVTVSS VL: DIELTQPPSVSVAPGQTARISCSGDNIRKKYVYWYQQKPGQAPVLVIYEDSKRPSGIPERFSGSNSGNTATLTISGTQAEDEADYYCSTADSGINNGVFGGGTKLTVL"
obs_value = 0.46


Just so you know, measured EC50 for MOR08545 Fab (Fab, V domains shown) VH: QVQLVESGGGLVQPGGSLRLSCAASGFTFSVNGMHWVRQAPGKGLEWVSVIDGMGHTYYADSVKGRFTISRDNSKNTLYLQMNSLRAEDTAVYYCARYDYIKYGAFDPWGQGTLVTVSS VL: DIELTQPPSVSVAPGQTARISCSGDNIGSKYVHWYQQKPGQAPVLVIYGDSNRPSGIPERFSGSNSGNTATLTISGTQAEDEADYYCTRTSTPISGVFGGGTKLTVLG came out at 0.3
